- assay explanation: Plasma PK of brensocatib, BID vs QD oral dosing, BALB/c mice
- Assay type: in vivo
- applied conditions: both sexes, BALB/c, mouse, po, 0.3 mg/kg/day, oral QD, 0.3 mg/kg/day, first 24 h, read-out: AUC0–24h
measured metric: AUC(0-t) (ng·h/mL)
Record the value in ng·h/mL, omitting the unit from your answer.

Request: Entry Cn1c(=O)oc2ccc(-c3ccc(C[C@@H](C#N)NC(=O)[C@@H]4CNCCCO4)cc3)cc21 needs its AUC(0-t) filled in; supply it.
Response: 188

====

- assay explanation: Plasma PK of brensocatib, BID vs QD oral dosing, Wistar rats
- Format: in vivo
- applied conditions: both sexes, rat, oral BID, 20 mg/kg/day, first 24 h, read-out: AUC(0–24)
measured metric: AUC(0-t)
Returns: string containing the number followed by the unit.

Request: Entry Cn1c(=O)oc2ccc(-c3ccc(C[C@@H](C#N)NC(=O)[C@@H]4CNCCCO4)cc3)cc21 needs its AUC(0-t) filled in; supply it.
Response: 412 µM·h

====

- assay explanation: Plasma PK of brensocatib, BID vs QD oral dosing, Wistar rats
- Type: in vivo
- applied conditions: both sexes, Wistar, rat, po, 0.2 mg/kg/day, oral BID, 0.2 mg/kg/day, evening dose, read-out: t1/2, PM dose (converted)
measured metric: half-life
Returns: string containing the number followed by the unit.

Request: Entry Cn1c(=O)oc2ccc(-c3ccc(C[C@@H](C#N)NC(=O)[C@@H]4CNCCCO4)cc3)cc21 needs its half-life filled in; supply it.
Response: 6.45 h

====

- assay explanation: Plasma PK of brensocatib, BID vs QD oral dosing, Wistar rats
- Type: in vivo
- applied conditions: both sexes, rat, oral QD, 3 mg/kg/day, first 24 h, read-out: AUC0–24h
measured metric: AUC(0-t) (ng·h/mL)
Record the value in ng·h/mL, omitting the unit from your answer.

Request: Entry Cn1c(=O)oc2ccc(-c3ccc(C[C@@H](C#N)NC(=O)[C@@H]4CNCCCO4)cc3)cc21 [brensocatib] needs its AUC(0-t) filled in; supply it.
Response: 11700

====

- assay explanation: Plasma PK of brensocatib, BID vs QD oral dosing, Wistar rats
- Format: in vivo
- applied conditions: both sexes, Wistar, rat, po, 20 mg/kg/day, oral BID, 20 mg/kg/day, morning dose, read-out: t1/2, AM dose (converted)
measured metric: half-life (h)
Record the value in h, omitting the unit from your answer.

Request: Entry Cn1c(=O)oc2ccc(-c3ccc(C[C@@H](C#N)NC(=O)[C@@H]4CNCCCO4)cc3)cc21 needs its half-life filled in; supply it.
Response: 7.81

====

- assay explanation: Plasma PK of brensocatib, BID vs QD oral dosing, BALB/c mice
- Assay type: in vivo
- applied conditions: both sexes, BALB/c, mouse, po, 20 mg/kg/day, oral BID, 20 mg/kg/day, first 24 h, read-out: AUC0–24h
measured metric: AUC(0-t) (ng·h/mL)
Record the value in ng·h/mL, omitting the unit from your answer.

Request: Entry Cn1c(=O)oc2ccc(-c3ccc(C[C@@H](C#N)NC(=O)[C@@H]4CNCCCO4)cc3)cc21 [brensocatib] needs its AUC(0-t) filled in; supply it.
Response: 24100

====

- assay explanation: Plasma PK of brensocatib, BID vs QD oral dosing, Wistar rats
- Assay type: in vivo
- applied conditions: both sexes, rat, oral QD, 30 mg/kg/day, first 24 h, read-out: AUC0–24h
measured metric: AUC(0-t) (µg·h/mL)
Record the value in µg·h/mL, omitting the unit from your answer.

Request: Entry Cn1c(=O)oc2ccc(-c3ccc(C[C@@H](C#N)NC(=O)[C@@H]4CNCCCO4)cc3)cc21 needs its AUC(0-t) filled in; supply it.
Response: 266

Hello, the source for this data is paper PMC10394516, in case you need it.
